B1: CPEB3 Ribozyme (parent)
chain: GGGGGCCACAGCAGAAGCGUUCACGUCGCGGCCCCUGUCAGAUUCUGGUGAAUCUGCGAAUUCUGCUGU

# Variants of: B1
# Test name: self-cleavage, relative activity (ratio to wild type); higher = more cleavage; co-transcriptional
Outcome: yes for self-cleavage of at least 0.6; no for anything lower.

Variant annotation | Assigned label
C35U A59U | no
U43A A51G | yes
G11A G65U | yes
G31C C54G | no
G30A C54U | yes
G30U C39A | no

The reported numbers originate from the RNAGym collection of RNA variant scans (doi:10.7554/elife.80360).
